Listed below: pEC50 values for each entry.
- SYSTEM_UNDER_TEST: T1, recombinant human CD33 protein (Sino Biologicals) (human, UniProt P20138 18-259)
- T1 construct: Bought protein; also called recombinant CD33
- TEST_DESCRIPTION: ELISA, plate coated with recombinant CD33
Entry type: numeric. Quantity: pEC50, the -log10 of concentration in molar units.

Check out these entries, answers already filled in.
{"columns": ["BINDER", "pEC50"],
 "data": [
  ["anti-CD33 antibody 6C7H52 (antibody, V domains shown, VH/VL only) VH: EVQLVESGGGLVQPGGSLRLSCAASGFTFSEYAMLWVRQAPGKGLEWVGEIRLKSNNYVTNYAASVKGRFTISRDDSKNSVYLQMNSLKTEDTGVYYCTRAGYYVPFAYWGQGTLVTVSS VL: QLMLTQSPSASASLGASVKLTCTLSSQHSTYTIEWYQQQPGKGPRYLMELKKEGSHSTGDGIPDRFSGSSSGAERYLTISSLQSEDEADYYCGVGHTIKEQFVYVFGGGTKLTVL", 9.64],
  ["anti-CD33 antibody 6C7H39 (antibody, V domains shown, VH/VL only) VH: EVQLVESGGGLVQPGGSLRLSCAASGFTFSEYDMLWVRQAPGKGLEWVGEIRLKSNNYVTNYAASVKGRFTISRDDTKNSVYLQMNSLKTEDTGVYYCTRAGYYVPFAYWGQGTLVTVSS VL: QPVLTQSPSASASLGASVKLTCTLSSQHSTYTIEWYQQQPEKGPRYLMELKKEGSHSTGDGIPDRFSGSSSGAERYLTISSLQSEDEADYYCGVGVTIKEQFVYVFGGGTKLTVL", 9.64],
  ["anti-CD33 antibody 6C7H45 (antibody, V domains shown, VH/VL only) VH: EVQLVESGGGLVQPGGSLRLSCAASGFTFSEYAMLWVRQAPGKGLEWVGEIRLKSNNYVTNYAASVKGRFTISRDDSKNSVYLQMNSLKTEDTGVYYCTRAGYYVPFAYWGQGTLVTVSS VL: QLMLTQSPSASASLGASVKLTCTLSSQHSTYTIEWYQQQPGKGPRYLMELKKEGSHSTGDGIPDRFSGSSSGAERYLTISSLQSEDEADYYCGVGHTIKEQFVYEFGGGTKLTVL", 9.82],
  ["anti-CD33 antibody 6C7H53 (antibody, V domains shown, VH/VL only) VH: EVQLVESGGGLVQPGGSLRLSCAGSGFTFSNYEMNWVRQAPGKGLEWVAEIRLKSNNYVTNYAASVKGRFTISRDDSKNSVYLQMNSLKTEDTGVYYCTRAGYYVPFAYWGQGTLVTVSS VL: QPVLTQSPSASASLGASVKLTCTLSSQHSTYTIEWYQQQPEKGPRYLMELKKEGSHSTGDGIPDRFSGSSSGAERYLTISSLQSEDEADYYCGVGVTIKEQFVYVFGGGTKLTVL", 9.74]
]}

Let us examine a further case.
Input anti-CD33 antibody 6C7H35 (antibody, V domains shown, VH/VL only) VH: EVQLVESGGGLVQPGGSLRLSCAASGFTFSEYAMLWVRQAPGKGLEWVGEIRLKSNNYVTNYAASVKGRFTISRDDSKNSVYLQMNSLKTEDTGVYYCTRAGYYVPFTYWGQGTLVTVSS VL: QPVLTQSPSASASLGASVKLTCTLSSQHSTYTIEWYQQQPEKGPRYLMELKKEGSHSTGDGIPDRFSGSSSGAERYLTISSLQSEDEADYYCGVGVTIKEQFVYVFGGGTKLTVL , output reported pEC50. 9.68
